compounds and their reported inhibition at 1 µM
target_or_test_system: CDK2/E (Homo sapiens (Human), UniProt P24941)
experiment_summary: ADP-Glo Kinase Assay, CDK2/E
Type: biochemical
experimental_context: 1 μM compound; read-out: CDK2/E % INH (1 μM)
readout_kind: inhibition at 1 µM

compound="CC(C)n1c(N2CCOC(CN)C2)nc2c([N+](=O)[O-])c(Br)c(Br)cc21 (stereo not shown) [Example 1AQ]" reading="< 5%"
compound="CC(C)Cn1c(N2CCNCC2)nc2c([N+](=O)[O-])c(Br)c(Br)cc21 [Example 1N]" reading=39%
compound="CCCn1c(NCC(O)CN)nc2c([N+](=O)[O-])c(Br)c(Br)cc21 (stereo not shown) [Example 1X]" reading=17%
compound="CCn1c(NCCCN)nc2c([N+](=O)[O-])c(Br)c(Br)cc21 [Example 1C]" reading="< 5%"
